Source of measurements: the supplement of paper PMC13380429

tested on: Caco-2; test: relative viability EC50 (midpoint between 100% and the lowest measured viability); higher = less toxic; conditions: 72 h
Record form. Attribute: relative viability EC50. Fill in for each entry.

Which relative viability EC50 is reported for this molecule? O=C(O)CNC(=O)c1ccccc1
> 10000 nM

Which relative viability EC50 is reported for this molecule? C[C@@H]1CC[C@@]2(OC1)O[C@H]1C[C@H]3[C@@H]4CC=C5C[C@@H](O[C@@H]6O[C@H](CO)[C@@H](O[C@@H]7O[C@@H](C)[C@H](O)[C@@H](O)[C@H]7O)[C@H](O)[C@H]6O[C@@H]6O[C@@H](C)[C@H](O)[C@@H](O)[C@H]6O)CC[C@]5(C)[C@H]4CC[C@]3(C)[C@H]1[C@@H]2C
1560 nM

Which relative viability EC50 is reported for this molecule? Cc1cc(-c2cc(O)ccc2Cl)cc2nnc(Nc3ccc(OCCN4CCCC4)cc3)nc12
1850 nM

Which relative viability EC50 is reported for this molecule? Nc1nc(F)nc2c1ncn2[C@@H]1O[C@H](COP(=O)(O)O)[C@@H](O)[C@@H]1O [fludarabine-phosphate]
> 10000 nM

Which relative viability EC50 is reported for this molecule? CCCCCCCCCCCCCCCCCCN(CCCCCCCCCCCCCCCCCC)CCCN(CCO)CCO
> 10000 nM

Which relative viability EC50 is reported for this molecule? CCCCCCCCCCCCCCCC[N+](C)(C)Cc1ccccc1
2120 nM

Which relative viability EC50 is reported for this molecule? CN(C(=O)Cc1ccc(Cl)c(Cl)c1)[C@H](CN1CCCC1)c1ccccc1
> 10000 nM

Which relative viability EC50 is reported for this molecule? CC(=O)CCCCn1c(=O)c2c(ncn2C)n(C)c1=O
> 10000 nM
